Value source: ChEMBL document CHEMBL4689842

Would you mind telling me the reported Population Fragmented Nuclei (%) of each entry?
System: Fibroblast
Test: Multiplex assay against human fibroblast
Type: toxicity, cell-based
Settings: 12 h, 10 µM, compound concentration 10 uM, replicate 2
The reply should contain only the number, in %.

Tell me the measured Population Fragmented Nuclei (%) of O=C(c1cc2c(cc1F)OC(c1ccc(F)cc1)(c1ccc(Cl)cc1Cl)O2)N1CCOCC1 (centres undefined) , please. 10

Tell me the measured Population Fragmented Nuclei (%) of C=CC(=O)Nc1cccc(Oc2nc(Nc3ccc(N4CCN(C)CC4)cc3OC)ncc2Cl)c1 , please. 57

Tell me the measured Population Fragmented Nuclei (%) of CCc1nn(CCCN2CCN(c3cccc(Cl)c3)CC2)c(=O)n1CCOc1ccccc1.Cl [NEFAZODONE HYDROCHLORIDE] , please. 9

Tell me the measured Population Fragmented Nuclei (%) of CN1CCN(Cc2ccc(Nc3ncc(Cl)c(Nc4ccccc4S(=O)(=O)N(C)C)n3)cc2)CC1 , please. 45

---

Test system: Fibroblast
Assay: Multiplex assay against human fibroblast
Assay type: toxicity, cell-based
Details: 24 h, 1 µM, compound concentration 1 uM, replicate 1
Would you mind telling me the reported Population Mitotic Cells (%) of each entry?
The reply should contain only the number, in %.

Tell me the measured Population Mitotic Cells (%) of CC(C)CC(=O)Nc1[nH]nc2c1CN(C(=O)C1CCN(C)CC1)C2(C)C [PHA-793887] , please. 28

Tell me the measured Population Mitotic Cells (%) of Cc1ccccc1C(c1ccccc1C)N1C2CCC1CC(O)(c1ccccc1)C2 (stereo unspecified) , please. 37

Tell me the measured Population Mitotic Cells (%) of Cc1cccc(CN2CCN(C(c3ccccc3)c3ccc(Cl)cc3)CC2)c1.Cl.Cl (stereo unspecified) , please. 25

Tell me the measured Population Mitotic Cells (%) of C[C@]12CC[C@@H]3c4ccc(O)cc4CC[C@H]3[C@@H]1CC[C@@H]2O [ESTRADIOL] , please. 55

Tell me the measured Population Mitotic Cells (%) of COC(=O)C1=C(C)NC(C)=C(C(=O)OCCCN2CCC(c3ccccc3)(c3ccccc3)CC2)[C@H]1c1cccc([N+](=O)[O-])c1 [NIGULDIPINE] , please. 23

Tell me the measured Population Mitotic Cells (%) of CN1CCN(Cc2ccc(Nc3ncc(Cl)c(Nc4ccccc4S(=O)(=O)N(C)C)n3)cc2)CC1 [DUBERMATINIB] , please. 29

---

Would you mind telling me the reported Population Mitotic Cells (%) of each entry?
Tested on: U2OS
Assay: Multiplex assay against U2OS
Assay type: toxicity, cell-based
Conditions: human, 12 h, 10 µM, compound concentration 10 uM, replicate 1
The reply should contain only the number, in %.

# value lookup — system U2OS, readout Population Mitotic Cells (%), item O=c1[nH]c2ccccc2n1C1CCN(Cc2ccc(-c3[nH]c4cc5ncnc5cc4nc3-c3ccccc3)cc2)CC1 69

# value lookup — system U2OS, readout Population Mitotic Cells (%), item Cc1nc(N2CC[C@H](O)C2)ncc1-c1cc(C(F)(F)F)cc2[nH]ncc12 40

# value lookup — system U2OS, readout Population Mitotic Cells (%), item C=CC(=O)Nc1ccc2[nH]c(=O)n(C3CCN(Cc4ccc(-c5nc6cc[nH]c(=O)c6cc5-c5ccccc5)cc4)CC3)c2c1 [Borussertib] 45

# value lookup — system U2OS, readout Population Mitotic Cells (%), item COC(=O)C1=C(C)NC(C)=C(C(=O)OCCCN2CCC(c3ccccc3)(c3ccccc3)CC2)[C@H]1c1cccc([N+](=O)[O-])c1 [NIGULDIPINE] 26

# value lookup — system U2OS, readout Population Mitotic Cells (%), item COc1ccc(-c2ccc3ncc4c(c3c2)n(-c2ccc(N3CCNCC3)c(C(F)(F)F)c2)c(=O)n4C)cn1.O=C(O)/C=C\C(=O)O [BGT-226] 2

# value lookup — system U2OS, readout Population Mitotic Cells (%), item CC1=C(C(=O)Nc2cc3cn[nH]c3cc2F)C(c2ccc(C(F)(F)F)cc2)CC(=O)N1 (configuration not stated) 60

# value lookup — system U2OS, readout Population Mitotic Cells (%), item CC(C)(C)NC[C@H](O)COc1nsnc1N1CCOCC1 [TIMOLOL] 69

# value lookup — system U2OS, readout Population Mitotic Cells (%), item O=C(c1cc2c(cc1F)OC(c1ccc(F)cc1)(c1ccc(Cl)cc1Cl)O2)N1CCOCC1 (configuration not stated) 50

# value lookup — system U2OS, readout Population Mitotic Cells (%), item CC(C)NC(=O)N1CC[C@H](NC2=Nc3cc(F)ccc3N(CC(F)F)c3ccc(Cl)cc32)C1 52

# value lookup — system U2OS, readout Population Mitotic Cells (%), item Cc1ccc(C)c(Oc2ccncc2C(=O)N2CCN(C3CC3)c3ccccc32)c1 51

# value lookup — system U2OS, readout Population Mitotic Cells (%), item Cc1ccc2c(c1)c1c(n2CCc2ccc(C)nc2)CCN(C)C1 [LATREPIRDINE] 52

# value lookup — system U2OS, readout Population Mitotic Cells (%), item O=c1cc(N2CCOCC2)oc2c(-c3cccc4c3sc3ccccc34)cccc12 47

# value lookup — system U2OS, readout Population Mitotic Cells (%), item Cc1ccccc1C(c1ccccc1C)N1C2CCC1CC(O)(c1ccccc1)C2 (configuration not stated) 64

# value lookup — system U2OS, readout Population Mitotic Cells (%), item C=CC(=O)Nc1cccc(Sc2nc(Nc3ccc(N4CCN(C)CC4)cc3)ncc2Cl)c1 71

# value lookup — system U2OS, readout Population Mitotic Cells (%), item CNC(=O)Nc1ccc2c(c1)[C@@]1(CC2)OC(=O)N(CC(=O)N(Cc2ccc(F)cc2)[C@@H](C)C(F)(F)F)C1=O [A-486] 72

# value lookup — system U2OS, readout Population Mitotic Cells (%), item Cc1c[nH]c2nccc(Oc3c(F)cc(Nc4cc(Cl)nc(N)n4)cc3F)c12 [BAY-549] 52

# value lookup — system U2OS, readout Population Mitotic Cells (%), item Cl.O=C(O)c1cc(-c2ccc(C3CCNCC3)cc2)c2ccc(-c3ccc(C(F)(F)F)cc3)cc2c1 58

# value lookup — system U2OS, readout Population Mitotic Cells (%), item COc1cc2ncn(-c3cc(OCc4ccccc4C(F)(F)F)c(C(N)=O)s3)c2cc1OC [GW843682X] 45

# value lookup — system U2OS, readout Population Mitotic Cells (%), item Cc1cccc(CN2CCN(C(c3ccccc3)c3ccc(Cl)cc3)CC2)c1.Cl.Cl (configuration not stated) 45

# value lookup — system U2OS, readout Population Mitotic Cells (%), item CC(C)Oc1ccccc1C(=O)Nc1ccccc1C(=O)Nc1cccc(S(=O)(=O)C(F)(F)F)c1 32

# value lookup — system U2OS, readout Population Mitotic Cells (%), item CN1CCN(Cc2ccc(Nc3ncc(Cl)c(Nc4ccccc4S(=O)(=O)N(C)C)n3)cc2)CC1 [DUBERMATINIB] 21

# value lookup — system U2OS, readout Population Mitotic Cells (%), item CC(C)c1noc(N2CCC(COc3ccc(-c4ccc(S(C)(=O)=O)cc4)nc3)CC2)n1 [GSK-1292263] 45

# value lookup — system U2OS, readout Population Mitotic Cells (%), item CCCSc1nc(N[C@@H]2C[C@H]2c2ccc(F)c(F)c2)c2nnn([C@@H]3C[C@H](OCCO)[C@@H](O)[C@H]3O)c2n1 [TICAGRELOR] 12

# value lookup — system U2OS, readout Population Mitotic Cells (%), item C[C@]12CC[C@@H]3c4ccc(O)cc4CC[C@H]3[C@@H]1CC[C@@H]2O [ESTRADIOL] 70

# value lookup — system U2OS, readout Population Mitotic Cells (%), item CCc1ccc(OCc2ccccc2C(=O)Nc2ccc3nc(C)cc(N)c3c2)cc1.Cl 21

# value lookup — system U2OS, readout Population Mitotic Cells (%), item CC(C)CC(=O)Nc1[nH]nc2c1CN(C(=O)C1CCN(C)CC1)C2(C)C [PHA-793887] 28

# value lookup — system U2OS, readout Population Mitotic Cells (%), item COc1cc(Nc2nccc(-c3cnn4nc(OC)ccc34)n2)cc(C(F)(F)F)c1 39

# value lookup — system U2OS, readout Population Mitotic Cells (%), item C=CC(=O)Nc1cccc(Oc2nc(Nc3ccc(N4CCN(C)CC4)cc3OC)ncc2Cl)c1 41

# value lookup — system U2OS, readout Population Mitotic Cells (%), item CNC(=O)Nc1ccc(-c2nc(N3CC4CCC(C3)O4)c3cnn(C4CCC5(CC4)OCCO5)c3n2)cc1 59

# value lookup — system U2OS, readout Population Mitotic Cells (%), item COc1ccccc1CN[C@H]1C2CCN(CC2)[C@H]1C(c1ccccc1)c1ccccc1 [CP-96345] 48

# value lookup — system U2OS, readout Population Mitotic Cells (%), item CC(C)OC(=O)N1CCC(Oc2ncnc3c2cnn3-c2ccc(S(C)(=O)=O)cc2F)CC1 79

# value lookup — system U2OS, readout Population Mitotic Cells (%), item CCc1nn(CCCN2CCN(c3cccc(Cl)c3)CC2)c(=O)n1CCOc1ccccc1.Cl [NEFAZODONE HYDROCHLORIDE] 28
